# target.of.assay: T1, human Claudin 18.2 (hCLDN18.2) (human, UniProt P56856-2 1-261)
# T1 construct: whole, on cells; also called CLDN18A2; claudin 18 splice variant 2
# test.protocol: FACS, HEK293-hCLDN18.2 cells
measured.endpoint: EC50 (µg/mL)
Give bare numbers, in µg/mL.

Fill blank: measured EC50 of the binder ch-253C4-G33A (antibody, V domains shown, also called chimeric antibody of 253C4-G33A) VH: QVQLKQSGAELVRPGASVSLSCKTSGYIFTSYWIHWVKQRSGQGLEWIGRFYPGTGTAYYNENFEGKATLTADRSSSTAYMQLSSLKSDDSAVYFCTREGYGKGNAMDYWGQGTSVTVSS VL: DIVMTQSPSSLTVTTGEKVTLSCKSSQSLLNSANQKNYLTWYQQKSGQPPELLIYWASTRESGVPDRFTGSGSGTDFTLTVSSVQAEDLAVYYCQNDYYFPFTFGGGTKLEIK is ____.
0.187

Recorded values, source patent US20220411492A1.
